Assay: Single dose oral pharmacokinetic study
Type: in vivo, mice
Settings: mouse, plasma; Mice oral PK @30 mg/kg (Table 4)
reported endpoint: half-life

CC(C)(CC(=O)O[C@H]1CC[C@]2(C)[C@H]3CC[C@@H]4[C@H]5[C@H](C6(C)CC6)CC[C@]5(C(=O)N5CCC[C@H]5c5ncc(-c6ccc(F)cc6)[nH]5)CC[C@@]4(C)[C@]3(C)CC[C@H]2C1(C)C)C(=O)O [Compound 33]; 32.1 h
CC1(C)C(C(=O)O)CC1C(=O)O[C@H]1CC[C@]2(C)[C@H]3CC[C@@H]4[C@H]5[C@H](C6(C)CC6)CC[C@]5(C(=O)N5CCC[C@H]5c5ncc(-c6ccc(F)cc6)[nH]5)CC[C@@]4(C)[C@]3(C)CC[C@H]2C1(C)C (stereo partly shown) [Compound 42]; 37.3 h
CC(C)(CC(=O)O)CC(=O)O[C@H]1CC[C@]2(C)[C@H]3CC[C@@H]4[C@H]5[C@H](C6(C)CC6)CC[C@]5(C(=O)N5CCCC5c5ncc(-c6cccnc6)[nH]5)CC[C@@]4(C)[C@]3(C)CC[C@H]2C1(C)C (stereo partly shown) [Compound 31]; 10.9 h
C=C(C)[C@@H]1CC[C@]2(C(=O)N3CCC[C@H]3c3ncc(-c4ccc(F)cc4)[nH]3)CC[C@]3(C)[C@H](CC[C@@H]4[C@@]5(C)CC[C@H](OC(=O)CC(C)(C)C(=O)O)C(C)(C)[C@@H]5CC[C@]43C)[C@@H]12 [Compound 34]; 16.1 h

Reference for the values: patent US9637516B2
